Field: Efficacy. Provide a value for each of the compounds that follow.
# assayed_system: Cannabinoid receptor 1 (Homo sapiens, UniProt P21554)
# Sequence (P21554 whole entry): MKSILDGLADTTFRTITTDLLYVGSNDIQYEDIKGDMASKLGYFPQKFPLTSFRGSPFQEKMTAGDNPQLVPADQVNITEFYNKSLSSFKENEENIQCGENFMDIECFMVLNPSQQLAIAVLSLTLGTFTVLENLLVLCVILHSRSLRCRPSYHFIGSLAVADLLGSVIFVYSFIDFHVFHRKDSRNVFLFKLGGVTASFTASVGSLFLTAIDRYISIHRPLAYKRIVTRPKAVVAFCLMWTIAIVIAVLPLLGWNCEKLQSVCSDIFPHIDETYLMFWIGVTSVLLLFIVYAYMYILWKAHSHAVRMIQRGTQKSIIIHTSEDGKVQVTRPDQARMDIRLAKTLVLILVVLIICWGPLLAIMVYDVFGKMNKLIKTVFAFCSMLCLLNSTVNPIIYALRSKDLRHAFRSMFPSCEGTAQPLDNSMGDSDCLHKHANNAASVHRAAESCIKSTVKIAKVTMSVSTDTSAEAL
# assay_info: Agonist activity at human CB1 receptor after 4 hrs by luciferase reporter gene assay relative to control
# Format: functional
Output spec: scalar in %, unitless text.

Lookup result for "O=C(Nc1sc2c(c1C(=O)N1CCC(F)(F)CC1)CCOC2)c1ccccc1OC(F)(F)F" ; measured Efficacy: 79

Query "O=C(Nc1sc2c(c1C(=O)NCC1CC1)CCOC2)c1c(F)cccc1C(F)(F)F" yields Efficacy of 90

compound "O=C(Nc1sc2c(c1C(=O)N1CCC(F)(F)CC1)CCOC2)c1ccccc1C(F)(F)F" , Efficacy observed: 90
